# Test system: bedstraw
# assay notes: Test B pre/postemergence bedstraw
# Type: in vivo, Galium aparine
# test parameters: Preemergence, Rate 125 g/ha; scale 0 to 10 (0 no effect, 10 complete control)
metric: Plant response rating, Bedstraw
Numbers only.

sample smiles | Plant response rating, Bedstraw
CC(C)N(C(=O)n1oc(=O)n(-c2cnn(C)c2)c1=O)c1ccc(F)cc1 | 0
Cc1ccccc1-n1c(=O)on(C(=O)N(c2cc(F)ccc2F)C(C)C)c1=O | 0
CCn1c(=O)on(C(=O)N(c2ccc(F)cc2F)C(C)C)c1=O | 8

Dear colleague, could you please provide Plant response rating, Bedstraw for the compounds listed below?
1. CCN(C(=O)n1oc(=O)n(Cc2cccs2)c1=O)C1CCCCC1
2. Cc1ccccc1-n1c(=O)on(C(=O)N(c2ccc(F)cc2F)C(C)C)c1=O

[0, 0]
